// provenance: patent US7297705B2

- EXPERIMENTAL SYSTEM: human cloned 5-HT6 receptors (Homo sapiens, UniProt P50406)
- Construct: expressed in transfected cells; host or cells: Hela cells
- Sequence (P50406 whole entry): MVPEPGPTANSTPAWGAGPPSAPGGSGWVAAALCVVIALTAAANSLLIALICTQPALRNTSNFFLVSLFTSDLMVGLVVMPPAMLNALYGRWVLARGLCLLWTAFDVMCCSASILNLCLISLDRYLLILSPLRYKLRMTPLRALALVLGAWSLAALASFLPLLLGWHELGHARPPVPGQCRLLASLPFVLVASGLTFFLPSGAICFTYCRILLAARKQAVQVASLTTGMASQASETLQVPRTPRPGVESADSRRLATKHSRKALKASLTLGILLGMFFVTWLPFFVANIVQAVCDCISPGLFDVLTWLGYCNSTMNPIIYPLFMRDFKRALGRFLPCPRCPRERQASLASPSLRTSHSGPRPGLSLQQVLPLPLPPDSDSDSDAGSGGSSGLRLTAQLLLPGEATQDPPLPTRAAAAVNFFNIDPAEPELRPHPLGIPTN
- MEASUREMENT DESCRIPTION: 5-HT6 binding affinity, [3H]-LSD displacement on membranes of Hela cells expressing human cloned 5-HT6 receptors
Give measured pKi for each item. Keep answers brief.
Answers are plain numbers, as −log10 of the molar value.

# count of solved cases: 4
> print(dat)
                                 cpd.smiles                       experimental.system  result.value
1  NCCc1cn(S(=O)(=O)c2cccc(C(F)(F)F)c2)c2ncccc12  human cloned 5-HT6 receptors (Homo sapiens, UniProt P50406)          7.68
2   Cc1ccc(F)cc1S(=O)(=O)n1cc(CCN)c2cccnc21  human cloned 5-HT6 receptors (Homo sapiens, UniProt P50406)          7.41
3  NCCc1cn(S(=O)(=O)c2ccccc2C(F)(F)F)c2ncccc12  human cloned 5-HT6 receptors (Homo sapiens, UniProt P50406)          7.42
4  NCCc1cn(S(=O)(=O)c2ccc(F)c(F)c2)c2ncccc12  human cloned 5-HT6 receptors (Homo sapiens, UniProt P50406)          7.05

Please find the next compound below.
// pKi lookup, compound = `Cc1ccc(C)c(S(=O)(=O)n2cc(CCN)c3cccnc32)c1` , result: 7.63

---

- EXPERIMENTAL SYSTEM: human cloned 5-HT6 receptors (Homo sapiens, UniProt P50406)
- Construct: expressed in transfected cells; host or cells: Hela cells
- MEASUREMENT DESCRIPTION: 5-HT6 binding affinity, [3H]-LSD displacement on membranes of Hela cells expressing human cloned 5-HT6 receptors
- EXPERIMENTAL CONDITIONS: [3H]-LSD 3.0 nM, 120 min at room temperature, Ki=IC50/(1+L/KD); read-out: 5-HT6 Binding Ki
MEASURED QUANTITY: Ki (nM)
Answers are plain numbers, in nM.

// Ki lookup, compound = NCCc1cn(S(=O)(=O)c2ccccc2Cl)c2cccnc12 [Example 1] , result: 5

---

Give measured pKi for each item. Keep answers brief.
- EXPERIMENTAL SYSTEM: human cloned 5-HT6 receptors (Homo sapiens, UniProt P50406)
- Construct: expressed in transfected cells; host or cells: Hela cells
- MEASUREMENT DESCRIPTION: 5-HT6 binding affinity, [3H]-LSD displacement on membranes of Hela cells expressing human cloned 5-HT6 receptors
Answers are plain numbers, as −log10 of the molar value.

# count of solved cases: 2
> print(dat)
                                 cpd.smiles  measured.quantity  result.value
1  NCCc1cn(S(=O)(=O)c2c(Cl)nc3sccn23)c2ncccc12                pKi          8.13
2  NCCc1cn(S(=O)(=O)c2ccc(C(F)(F)F)cc2Cl)c2cccnc12                pKi          7.82

Please find the next compound below.
// pKi lookup, compound = `NCCc1cn(S(=O)(=O)c2cccc(F)c2)c2ncccc12` , result: 7.87

---

Give measured pKi for each item. Keep answers brief.
- EXPERIMENTAL SYSTEM: human cloned 5-HT6 receptors (Homo sapiens)
- Construct: expressed in transfected cells; host or cells: Hela cells
- MEASUREMENT DESCRIPTION: 5-HT6 binding affinity, [3H]-LSD displacement on membranes of Hela cells expressing human cloned 5-HT6 receptors
Give bare numbers, as −log10 of the molar value.

# count of solved cases: 3
> print(dat)
                                 cpd.smiles  measured.quantity  result.value
1    N#Cc1ccccc1S(=O)(=O)n1cc(CCN)c2cccnc21                pKi          7.10
2  NCCc1cn(S(=O)(=O)c2cc(Br)c(Br)s2)c2ncccc12                pKi          7.97
3    NCCc1cn(S(=O)(=O)c2ccc(Br)s2)c2ncccc12                pKi          8.07

// pKi lookup, molecule = `COc1ccc(S(=O)(=O)n2cc(CCN)c3cccnc32)cc1` , result: 7.13
